Give pIC50 for every item shown.
# tested_target: PARP1 (Homo sapiens, UniProt P09874)
# Sequence (P09874 whole entry): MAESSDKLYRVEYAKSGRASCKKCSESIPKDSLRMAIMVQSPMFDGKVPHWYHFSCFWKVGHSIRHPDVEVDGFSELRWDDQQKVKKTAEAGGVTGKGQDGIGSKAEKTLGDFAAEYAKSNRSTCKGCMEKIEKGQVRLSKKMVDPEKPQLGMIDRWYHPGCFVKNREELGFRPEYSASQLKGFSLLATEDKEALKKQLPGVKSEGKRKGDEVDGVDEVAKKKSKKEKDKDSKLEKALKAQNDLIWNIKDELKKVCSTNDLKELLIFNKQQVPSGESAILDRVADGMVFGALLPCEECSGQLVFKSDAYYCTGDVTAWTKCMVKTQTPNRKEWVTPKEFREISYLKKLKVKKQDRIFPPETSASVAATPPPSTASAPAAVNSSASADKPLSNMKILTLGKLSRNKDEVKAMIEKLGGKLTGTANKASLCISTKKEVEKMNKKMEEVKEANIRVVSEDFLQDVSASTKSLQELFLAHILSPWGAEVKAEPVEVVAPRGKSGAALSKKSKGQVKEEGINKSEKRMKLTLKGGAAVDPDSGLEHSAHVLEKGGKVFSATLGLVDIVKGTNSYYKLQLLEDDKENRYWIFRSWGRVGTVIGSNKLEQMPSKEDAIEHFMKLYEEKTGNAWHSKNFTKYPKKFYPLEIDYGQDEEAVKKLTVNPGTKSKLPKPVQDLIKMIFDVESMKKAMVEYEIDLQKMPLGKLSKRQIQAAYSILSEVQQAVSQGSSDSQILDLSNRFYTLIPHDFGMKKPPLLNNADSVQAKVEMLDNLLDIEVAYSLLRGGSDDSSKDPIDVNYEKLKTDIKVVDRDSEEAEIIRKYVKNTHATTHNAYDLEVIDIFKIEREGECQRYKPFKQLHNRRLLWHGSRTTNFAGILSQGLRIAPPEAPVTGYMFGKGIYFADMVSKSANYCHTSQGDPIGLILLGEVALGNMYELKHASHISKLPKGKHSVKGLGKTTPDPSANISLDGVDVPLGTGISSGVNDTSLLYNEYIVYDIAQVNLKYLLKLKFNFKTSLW
# test_description: PARP trapping assay in U2OS cells
# Format: cell-based
# Design: endogenous in cells; host or cells: U2OS
# condition_details: U2OS cells, MMS, 4 hrs; read-out: PARP Trapping (U2OS)
pIC50: −log10 of the molar value.

Example results:
[[record]]
molecule = "CC(C)(C)OC(=O)N[C@@H](C(=O)N1CC[C@H](OC2CCN(CC(=O)N3CCN(C(=O)c4cc(Cc5n[nH]c(=O)c6ccccc56)ccc4F)CC3)CC2)C1)C1CCCCC1"
observation_type = "pIC50"
assay_value = "6.00 to 7.00"

[[record]]
molecule = "CC(C)(C)OC(=O)Nc1cc(-c2cccc(C3COC3)c2)cnc1C(=O)NCCOCCNCC(=O)N1CCN(C(=O)c2cc(Cc3n[nH]c(=O)c4ccccc34)ccc2F)CC1"
observation_type = "pIC50"
assay_value = "6.00 to 7.00"

[[record]]
molecule = "O=C(N[C@@H](C(=O)N1CCC(OC2CCN(CC(=O)N3CCN(C(=O)c4cc(Cc5n[nH]c(=O)c6ccccc56)ccc4F)CC3)CC2)CC1)C1CCCCC1)c1ccc(N2CCN(C(=O)C3CC3)CC2)cc1F"
observation_type = "pIC50"
assay_value = "7.00 to 8.00"


Your task in this section: give pIC50 for each listed record.
1. CC1(C(=O)N2CCCC(c3cccc(C(=O)N[C@@H](C(=O)N4CCC(OC5CCN(CC(=O)N6CCN(C(=O)c7cc(Cc8n[nH]c(=O)c9ccccc89)ccc7F)CC6)CC5)CC4)C4CCCCC4)c3F)C2)CC1 (some centres unmarked)
2. CCc1cccc(-c2cnc(C(=O)N3CCC(OC4CCN(CC(=O)N5CCN(C(=O)c6cc(Cc7n[nH]c(=O)c8ccccc78)ccc6F)CC5)CC4)CC3)c(NC(C)=O)c2)c1

stdout:
1: 7.00 to 8.00; 2: 6.00 to 7.00

----------
Task for the reader: assign each of the following molecules its reported IC50.
# tested_target: PARP1 (Homo sapiens, UniProt P09874)
# test_description: PARP trapping assay in U2OS cells
# Type: cell-based
# Design: endogenous in cells; host or cells: U2OS
# condition_details: U2OS cells, MMS, 4 hrs; read-out: PARP Trapping (U2OS)

[[record]]
molecule = "CCc1cccc(-c2cnc(C(=O)NCCOCCNCC(=O)N3CCN(C(=O)c4cc(Cc5n[nH]c(=O)c6ccccc56)ccc4F)CC3)c(NC(=O)CNCc3cccc(C)c3)c2)c1 [Compound I-63]"
assay_value = "100 to 1000 nM"

[[record]]
molecule = "CC1(OC2CCN(CC(=O)N3CCN(C(=O)c4cc(Cc5n[nH]c(=O)c6ccccc56)ccc4F)CC3)CC2)CCN(C(=O)[C@H](NC(=O)c2cccc(C3CCCN(C(=O)C4(C)CC4)C3)c2F)C2CCCCC2)CC1 (some centres unmarked) [Compound I-893]"
assay_value = "10 to 100 nM"

[[record]]
molecule = "O=C(N[C@@H](C(=O)N1CCN(CC23CCC(C(=O)N4CCN(C(=O)c5cc(Cc6n[nH]c(=O)c7ccccc67)ccc5F)CC4)(CC2)CO3)CC1)C1CCCCC1)c1cccc([C@@H]2CCCN(C(=O)CNC3CC3)C2)c1 [Compound I-382]"
assay_value = "10 to 100 nM"

[[record]]
molecule = "CC(C)(C)OC(=O)N[C@@H](C(=O)NC12CCC(CN3CCC(C(=O)N4CCN(C(=O)c5cc(Cc6n[nH]c(=O)c7ccccc67)ccc5F)CC4)CC3)(CC1)OC2)C1CCCCC1 [Compound I-993]"
assay_value = "10 to 100 nM"


# ---- query molecule ----
// field: IC50; key: CCc1cccc(-c2cnc(C(=O)NCCOCCNCC(=O)N3CCN(C(=O)c4cc(Cc5n[nH]c(=O)c6ccccc56)ccc4F)CC3)c(N)c2)c1 [Compound I-402] ; value = 100 to 1000 nM
